Data provenance is ChEMBL document CHEMBL3525906.

- method-description: Drug metabolism in human hepatic S9 fraction assessed as 2-despiperidyl-2-(5-carboxypentylamine) repaglinide formation by LC-MS/MS method
- Format: ADME, Liver
measured-attribute: Km (µM)
Number in µM, nothing else.

[Q] # lookup: Km of CCOc1cc(CC(=O)N[C@@H](CC(C)C)c2ccccc2N2CCCCC2)ccc1C(=O)O [REPAGLINIDE]
[A] 47

---

- Tested on: Liver microsome
- method-description: Drug metabolism in human liver microsomes assessed as 2-despiperidyl-2-amino repaglinide formation by LC-MS/MS method
- Assay type: ADME
measured-attribute: Km (µM)
Number in µM, nothing else.

[Q] # lookup: Km of CCOc1cc(CC(=O)N[C@@H](CC(C)C)c2ccccc2N2CCCCC2)ccc1C(=O)O [REPAGLINIDE]
[A] 47

---

- method-description: Fraction metabolism via UGT in human hepatic S9 fraction
- Format: ADME, Liver
measured-attribute: Fm
Format: numeric value only, no unit, no commentary.

[Q] # lookup: Fm of CCOc1cc(CC(=O)N[C@@H](CC(C)C)c2ccccc2N2CCCCC2)ccc1C(=O)O [REPAGLINIDE]
[A] 0.2

---

- method-description: Retention time of the compound by LC-MS/MS method
- Assay type: physicochemical
measured-attribute: Retention_time (min)
Number in min, nothing else.

[Q] # lookup: Retention_time of CCOc1cc(CC(=O)N[C@@H](CC(C)C)c2ccccc2N2CCCCC2)ccc1C(=O)O[C@@H]1O[C@H](C(=O)O)[C@@H](O)[C@H](O)[C@H]1O
[A] 3.4

[Q] Query CCOc1cc(CC(=O)N[C@@H](CC(C)C)c2ccccc2N2CCCC(O)C2)ccc1C(=O)O (stereo not given in full) next
[A] 2.9

[Q] Query COc1ccc2c(c1)c(CC(=O)O)c(C)n2C(=O)c1ccc(Cl)cc1 next
[A] 3

[Q] Query CCOc1cc(CC(=O)N[C@@H](CC(C)C)c2ccccc2NCCCCC(=O)O)ccc1C(=O)O next
[A] 2.8

[Q] Query CCOc1cc(CC(=O)N[C@@H](CC(C)C)c2ccccc2N)ccc1C(=O)O next
[A] 2.7

---

- target-of-assay: UniProt:P10632
- Sequence (P10632 whole entry): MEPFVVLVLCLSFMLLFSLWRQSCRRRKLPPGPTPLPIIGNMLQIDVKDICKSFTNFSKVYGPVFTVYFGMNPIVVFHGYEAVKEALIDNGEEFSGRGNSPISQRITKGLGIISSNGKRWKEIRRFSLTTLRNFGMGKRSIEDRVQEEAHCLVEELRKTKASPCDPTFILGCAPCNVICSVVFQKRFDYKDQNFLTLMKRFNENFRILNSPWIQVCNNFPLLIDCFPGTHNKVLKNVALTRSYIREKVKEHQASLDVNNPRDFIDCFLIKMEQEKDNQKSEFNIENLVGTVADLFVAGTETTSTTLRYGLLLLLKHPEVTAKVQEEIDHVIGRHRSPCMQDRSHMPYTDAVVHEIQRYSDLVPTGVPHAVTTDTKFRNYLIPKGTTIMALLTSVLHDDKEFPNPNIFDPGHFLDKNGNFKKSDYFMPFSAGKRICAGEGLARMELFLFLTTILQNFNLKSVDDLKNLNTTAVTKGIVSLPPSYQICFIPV
- method-description: Fraction metabolism via CYP2C8 in human hepatic S9 fraction
- Type: ADME, Liver
measured-attribute: Fm
Format: numeric value only, no unit, no commentary.

[Q] # lookup: Fm of CCOc1cc(CC(=O)N[C@@H](CC(C)C)c2ccccc2N2CCCCC2)ccc1C(=O)O [REPAGLINIDE]
[A] 0.41

---

- System: Liver microsome
- method-description: Drug metabolism in human liver microsomes assessed as glucuronide formation by LC-MS/MS method
- Type: ADME
measured-attribute: Km (µM)
Number in µM, nothing else.

[Q] # lookup: Km of CCOc1cc(CC(=O)N[C@@H](CC(C)C)c2ccccc2N2CCCCC2)ccc1C(=O)O [REPAGLINIDE]
[A] 37

---

- method-description: Drug metabolism in human hepatocytes assessed as 2-despiperidyl-2-(5-carboxypentylamine) repaglinide formation by LC-MS/MS method
- Format: ADME, cell-based, Hepatocyte
measured-attribute: Km (µM)
Number in µM, nothing else.

[Q] # lookup: Km of CCOc1cc(CC(=O)N[C@@H](CC(C)C)c2ccccc2N2CCCCC2)ccc1C(=O)O [REPAGLINIDE]
[A] 28

---

- method-description: Drug metabolism in human hepatic S9 fraction assessed as glucuronide formation by LC-MS/MS method
- Type: ADME, Liver
measured-attribute: Km (µM)
Number in µM, nothing else.

[Q] # lookup: Km of CCOc1cc(CC(=O)N[C@@H](CC(C)C)c2ccccc2N2CCCCC2)ccc1C(=O)O [REPAGLINIDE]
[A] 47
